Parameter: ED50. Scope: all listed entries.
Organism: Homo sapiens
procedure.details: Inhibition of platelet aggregation of human platelet rich plasma(h-PRP) induced by adenosine 5-diphosphate (ADP).(oral activity in mice)
Assay type: functional
run.conditions: read-out: ID50 (the source's name)
Number only, in mg/kg; omit the unit.

In the examples that follow, each entry is paired with its recorded ED50.
What the record says about "COC(=O)COc1ccc(C(=O)CN(C)C(=O)c2ccc(C(=N)NO)cc2)cc1OCC(=O)OC" : ED50 is 0.7

What the record says about "N=C(N)c1ccc(C(=O)N[C@@H](Cc2ccc(O)cc2)C(=O)N2CCC(OCC(=O)O)CC2)cc1" : ED50 is 8.5

What the record says about "CCOC(=O)COC1CCN(C(=O)[C@H](Cc2ccc(O)cc2)NC(=O)c2ccc(C(N)=NC(=O)OCC)cc2)CC1" : ED50 is 1.4

What the record says about "CCOC(=O)NC(=N)c1ccc(C(=O)N[C@@H](Cc2ccc(OC(C)=O)cc2)C(=O)N2CCC(OCC(=O)OC(C)C)CC2)cc1" : ED50 is 0.9

What the record says about "CC(C)OC(=O)COc1ccc(C(=O)CN(C)C(=O)c2ccc(C(=N)N)cc2)cc1OCC(=O)OC(C)C" : ED50 is 11

New cases:
What the record says about "CCOC(=O)NC(=N)c1ccc(C(=O)N[C@@H](Cc2ccc(O)cc2)C(=O)N2CCC(OCC(=O)O)CC2)cc1" : ED50 is 10.7

What the record says about "CCOC(=O)COC1CCN(C(=O)[C@H](Cc2ccc(O)cc2)NC(=O)c2ccc(C(=N)N)cc2)CC1" : ED50 is 6.9

What the record says about "CN(CC(=O)c1ccc(OCC(=O)O)c(OCC(=O)O)c1)C(=O)c1ccc(C(=N)N)cc1" : ED50 is 11.2

What the record says about "CCCCOC(=O)NC(=N)c1ccc(C(=O)N[C@@H](C)C(=O)N2CCC(OCC(=O)OCC)CC2)cc1" : ED50 is 0.3

What the record says about "CCOC(=O)COC1CCN(C(=O)[C@H](C)NC(=O)c2ccc(C(=N)N)cc2)CC1" : ED50 is 1.8

What the record says about "C[C@H](NC(=O)c1ccc(C(=N)N)cc1)C(=O)N1CCC(OCC(=O)O)CC1" : ED50 is 5.2
